Parameter IC50: see the listing below.
- System: HCT116 cells
- assayRemarks: HCT116 cytotoxic activity assay (Alamar Blue, 72 h)
- conditionNotes: Homo sapiens, HCT-116, read-out: IC50 in the HCT116 cytotoxic activity assay
Structures can show the parent of a compound that is named as a salt.
observedProperty: IC50

* Nc1nc(Nc2ccc(Oc3ccnc(CNS(=O)(=O)c4ccc(F)cc4)c3)cc2)cc(-c2ccccc2)n1 [Example 98, trifluoroacetate] | ≤ 500 nM
* CCS(=O)(=O)NCc1cc(Oc2ccc(Nc3cc(-c4ccccc4)nc(N)n3)cc2)ccn1 [Example 94, trifluoroacetate] | ≤ 500 nM
* Nc1nc(Nc2ccc(Oc3ccnc(NCc4ccccc4)c3)cc2)cc(-c2ccccc2)n1 | 500 to 2000 nM
* COC[C@@H]1CCCN1C(=O)c1cc(Oc2ccc(Nc3cc(-c4ccccc4)nc(N)n3)cc2)ccn1 | > 2000 nM
* Cn1cnc(S(=O)(=O)NCc2cc(Oc3ccc(Nc4cc(-c5ccccc5)nc(N)n4)cc3)ccn2)c1 [Example 93, trifluoroacetate] | > 2000 nM
* NCc1cc(Oc2ccc(Nc3cc(-c4ccccc4)nc(N)n3)cc2)ccn1 | ≤ 500 nM
* Nc1nc(Nc2ccc(Oc3ccnc(CNS(=O)(=O)c4ccccc4)c3)cc2)cc(-c2ccccc2)n1 [Example 96, trifluoroacetate] | ≤ 500 nM

---

- System: HCT116 cells
observedProperty: IC50

* N#CCc1ccc(-c2cc(Nc3cccc(Oc4ccnc(C(N)=O)c4)c3)nc(N)n2)cc1 [Example 294] | 500 to 2000 nM
